Tested on: CP237
Test: qHTS profiling for inhibitors of Plasmodium falciparum proliferation (AID 504749); also: nearly all actives have a fitted effect of over 60% in size
Conditions: P. falciparum in erythrocytes, SYBR Green DNA, 72 h; series mostly up to 28.7 µM
Records with an inconclusive call do not appear. Activity calls are given as the source filed them. Calls follow the shape of the dose curve; as a rule, active = well fitted inhibition curve with a large enough effect; inconclusive = small, poorly fitted or top-dose-only effect; inactive = flat fitted curve, though single readings scatter.
Could you please pick one outcome from this set? active, inactive

input: What did the test return for O=C1NC(=O)C2C3C=CC(C3)C12 (stereo not drawn) ?
output: inactive

input: Ok, now CCCC(=O)O[C@]1(C(=O)COC(C)=O)CC[C@H]2C3C[C@H](F)C4=CC(=O)C=CC4(C)[C@@]3(F)[C@@H](O)CC21C (stereo partly drawn)
output: inactive

input: What about CC(=O)N[C@H]1[C@H](O[C@@H]2c3ccc(c(Cl)c3)Oc3cc4cc(c3O[C@@H]3O[C@H](CO)[C@@H](O)[C@H](O)C3C)Oc3ccc(cc3Cl)C[C@H]3NC(=O)[C@@H](N)c5ccc(O)c(c5)Oc5cc(O)cc(c5)[C@H](NC3=O)C(=O)N[C@H]4C(=O)N[C@H]3C(=O)N[C@@H]2C(=O)N[C@@H](C(=O)O)c2cc(O)cc(O[C@H]4O[C@H](CO)[C@@H](O)C(O)[C@@H]4O)c2-c2cc3ccc2O)O[C@H](CO)[C@@H](O)[C@@H]1O (stereo partly drawn) ?
output: inactive

input: Same lookup for CC1(C)SC2[C@@H](N=CN3CCCCCC3)C(=O)N2[C@H]1C(=O)O (stereo partly drawn) , please.
output: inactive

input: How about C=C[C@@]1(C)C[C@H](OC(=O)CSC(C)(C)CNC(=O)[C@@H](N)C(C)C)[C@@]2(C)C(C)CC[C@@]3(CCC(=O)[C@@H]32)[C@H](C)[C@H]1O (stereo partly drawn) ?
output: active

input: Moving on to CC[C@@]1(O)CC2CN(CCc3c([nH]c4ccccc34)[C@](C(=O)OC)(c3cc4c(cc3OC)N(C)C3[C@@](O)(C(=O)OC)C(OC(C)=O)[C@]5(CC)C=CCN6CC[C@@]43C65)C2)C1 (stereo partly drawn)
output: active

input: Try this compound too: NCCCCC(N)C(=O)O (stereo not drawn)
output: inactive

input: Field entry: C[C@H]1OC(OC2C(O)[C@@H](O)C(OC3C(O)[C@@H](O)C(O)O[C@@H]3CO)O[C@@H]2CO)[C@H](O)C(O)C1N[C@H]1C=C(CO)[C@@H](O)[C@H](O)C1O (stereo partly drawn)
output: inactive

input: Likewise for CCN1CCN(C(=O)NC(C(=O)NC2C(=O)N3C(C(=O)O)=C(CSc4nnnn4C)CSC23)c2ccc(O)cc2)C(=O)C1=O (stereo not drawn) ?
output: inactive

input: Would you kindly repeat that for "NC(=O)OC[C@@H]1[C@H](NC(=O)/C(=N/OCC(=O)O)c2csc(N)n2)C(=O)N1S(=O)(=O)O" ?
output: inactive

input: Follow-up entry: OCCOC[C@H]1O[C@H](OCCO)[C@H](OCCO)[C@@H](OCCO)[C@@H]1OCCO (tested in a mixture with another compound)
output: inactive

input: Quick one: "O=C(O)C[CH2][Ge](=[O])[O][Ge](=[O])[CH2]CC(=O)O"
output: inactive

input: Follow-up entry: NC(=O)C1CC2(NC(=O)NC2=O)c2cc(F)ccc2O1 (stereo not drawn)
output: inactive

====

Experiment: NFAT Signaling Pathway (AID 444);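 also: carbachol stimulus at about its EC50 of 1 µM final; % is scaled to controls: 0 for no effect and ±100 for the full control effect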
Settings: Jurkat NFAT-bla M1, carbachol, beta-lactamase ratio, 5 h; at 17.2 µM (top of the series) unless noted
Records with an inconclusive call do not appear. Activity calls are given as the source filed them. Calls come from the whole dose curve; as a rule, active = well fitted curve in either direction with a large enough effect (not every such curve was filed as active); inconclusive = small, poorly fitted or top-dose-only effect, or another doubt; inactive = flat fitted curve, though single readings scatter.
READOUT_NAME: activity change, negative = inhibition

input: activity change, negative = inhibition for "Cc1cc(=O)oc(C)c1C(=O)N1CCN(Cc2ccc3c(c2)OCO3)CC1" ?
output: 17.1% (inactive)

input: Next compound up: COc1cccc(/C(O)=C2\C(=O)C(=O)N(c3ccccn3)C2c2ccccc2OC)c1 (stereo not drawn)
output: 11.4% (inactive)

input: Follow-up item: O=C(O)CC(NCc1ccco1)C(=O)OCCc1ccccc1 (stereo not drawn)
output: 5.37% (inactive)

input: Follow-up entry: "CC1(C)CN(O)CCN1O"
output: 0.875% (inactive)

input: Then this compound: "CCCCOc1ccc(C(=O)Nc2ccc(N3CCN(C(C)=O)CC3)cc2)cc1"
output: 11.1% (inactive)

input: What about "COc1cccc(NC(=O)c2cc(C(=O)Nc3cccc(OC)c3)n(C)n2)c1" ?
output: -14.3% (inactive)

input: Repeat for the following compound: COC(=O)c1ccccc1NC(=O)C1COc2ccccc2O1 (stereo not drawn)
output: -19.3% (inactive)

input: Can you handle "CN(C)c1cccc2c(S(=O)(=O)N3CCOCC3)cccc12" next?
output: -4.98% (inactive)

input: Same for "CCCN1C[C@@H](CSC)C[C@H]2c3cccc4[nH]cc(c34)C[C@@H]21"
output: -24.1% [at 38 µM] (inactive)

input: Try the compound "COc1ccc(C(=O)Nc2nc(N)n(-c3ccccc3)n2)cc1OC"
output: -1.36% (inactive)

input: Check "CC(=O)N=C(N)Sc1nc2ccccc2[nH]1" too.
output: -12.3% (inactive)

input: For "Cc1cccc(N2CN=c3s/c(=C\c4ccncc4)c(=O)n3C2)c1" then?
output: -17.2% (inactive)

input: What do you have for "O=c1[nH]c2cnccc2n1-c1ccccc1" ?
output: -4.82% (inactive)

input: Also, "CN(CCNC(=O)c1ccc(/C=N/O)nc1)Cc1ccccc1" please.
output: -21.1% (inactive)

input: What do you get for COC(=O)c1ccc(C2NC(C(=O)O)CS2)cc1 (stereo not drawn) ?
output: 6.25% (inactive)

input: Same read-out for "Nc1nnnn1/N=C/c1ccccn1" ?
output: -4.47% (inactive)

input: One more compound: "CC(C)(C)c1cc(Br)c(O)c(CN(Cc2cc(C(C)(C)C)cc(Br)c2O)C2CCCCC2)c1"
output: 3.39% [at 7.69 µM] (inactive)

input: Next up: CCOC(=O)c1[nH]c2ccc(OC)cc2c1NC(=O)CCN1CCCC(C)C1 (stereo not drawn)
output: -82.5% (active)

input: Do the same for "CCOC(=O)CNC(=O)CCCCCC(=O)NCC(=O)OCC" please
output: 1.76% (inactive)

input: Try the compound "CNc1ccccc1-c1nc2ccccc2n(C)c1=O"
output: -2.49% (inactive)

input: Item: "O=C(OCCN1CCOCC1)c1ccc(OCCN2CCOCC2)cc1"
output: -7.8% (inactive)

input: Note, next up: "Fc1cnc(N2CCOCC2)nc1NCc1ccccc1"
output: -3.23% (inactive)

input: Also "CCCC(=O)N1CCN(c2nc(CC(C)C)c3c(c2C#N)CCC3)CC1" ?
output: -18.4% (inactive)

input: Let us now turn to "Oc1ccc(C=Nc2ccc3ncccc3c2)c(O)c1"
output: -26.8% (inactive)

input: What do you get for "CCC(=O)Nc1ccc(-c2nnc(-c3ccccc3)o2)cc1" ?
output: 4.89% (inactive)

input: And what about the compound "CCCCOC(=O)CSc1nc(N)c(C#N)c(-c2ccc(OC)cc2)c1C#N" ?
output: -0.768% (inactive)

input: And CCCOc1ccc(CSC(CC(=O)O)C(=O)O)cc1 (stereo not drawn) ?
output: 13.3% (inactive)

input: // query: "COc1cccc(OC)c1-c1nn2c(-c3ccco3)nnc2s1"
output: -8.25% (inactive)

input: Now give it for "c1ccc(-c2nnc3sc(Cc4cccs4)nn23)cc1" too.
output: -18.2% (inactive)

input: Again, but for "O=C(O)CSCC(=O)Nc1ccc(S(=O)(=O)N2CCCCC2)cc1"
output: 5.47% (inactive)

input: Same thing, different compound: "O=C(NCC(F)(F)F)N1CCOCC1"
output: 0.794% (inactive)

input: Follow-up entry: CC(NC(=O)CSc1nnc(COc2ccccc2)o1)c1ccccc1 (stereo not drawn)
output: -0.274% (inactive)

input: Same question for NC(=O)C1CCN(C2OC(=O)c3ccccc32)CC1 (stereo not drawn) please.
output: 1.22% (inactive)

input: Try this compound next: "COc1ccccc1NC(=O)c1c(C)cc(=O)oc1C"
output: 12.5% (inactive)

input: Query "CC(=O)c1c(OCC(=O)O)ccc2c(C)cc(=O)oc12" next
output: -8.66% (inactive)

input: Lookup Fc1ccc(C2C3=C(Nc4ncnn42)c2ccccc2OC3c2ccncc2)cc1 (stereo not drawn)
output: -17% (inactive)

input: // repeat for "Cc1[nH]c(=O)[nH]c(=O)c1S(=O)(=O)N1CCCC1" and report
output: -7.3% (inactive)

input: Also CCOC(=O)C1/C(=N\O)CC(C)(O)C(C(=O)OCC)C1c1ccc(N(C)C)cc1 (stereo not drawn) , if possible.
output: 2.58% (inactive)

input: What do you get for COc1ccc(CCNC2CC(C)N(C)CC2C)cc1OC (stereo not drawn) ?
output: -14.9% (inactive)

input: Likewise for "CC1(C)CNC(=O)c2sc(N3CCOCC3)nc2C1" ?
output: 26.7% (inactive)

input: Please answer likewise for CCc1ccccc1NC(=O)CSC1=C(C#N)C(c2ccc(O)c(OC)c2)C2=C(CCCC2=O)N1 (stereo not drawn)
output: 2.67% (inactive)

input: Also, CCCOc1cccc(C2C(C(=O)c3ccc(C)o3)=C(O)C(=O)N2CCCN(C)C)c1 (stereo not drawn) please.
output: 10.1% (inactive)

input: Try the compound "Oc1ccc(Br)cc1CNn1cnnc1"
output: 9.44% (inactive)

input: Try this compound too: "O=C(NCCCN1CCOCC1)C1(c2ccccc2)CCOCC1"
output: -0.629% (inactive)

input: Do the same for CN(C)c1ccc(C=NCCC2(O)CCOC(C)(C)C2)cc1 (stereo not drawn) please
output: 4.94% (inactive)

input: # repeat for "O=C(Nn1cnnc1)C(c1ccccc1)c1ccccc1"
output: -6.95% (inactive)

input: Note, next up: "C/C(=C\C(=O)O)CC(=O)O"
output: -2% (inactive)

input: Then "COC(=O)c1ccc(Cn2nnc3c(sc4nc(N5CCOCC5)c5c(c43)CCCC5)c2=O)o1" ?
output: -21.1% (inactive)
